Reported IC50 by item:
tested on: TNF-alpha secretion in human whole blood; experiment: Inhibition of TNF-alpha secretion in human whole blood (IFN-gamma primed, L18-MDP stimulated); type: cell-based; details: Homo sapiens, 16 h, L18-MDP 100 ng/mL, read-out: Human Whole Blood TNFα IC50

Molecule: Cc1cc(CC(=O)Nc2cnn(C(C)(C)C)c2)c(F)cc1Oc1ccnc2ccc(S(C)(=O)=O)cc12
IC50: 14 nM

Molecule: CC(C)(C)n1cc(NC(=O)Cc2ccc(Oc3ccnc4ccc(S(C)(=O)=O)cc34)c(C(F)F)c2)cn1
IC50: 40 nM

Molecule: COc1cc2nccc(Oc3ccc(CC(=O)Nc4cnn(C(C)(C)C)c4)cc3C(F)F)c2cc1S(C)(=O)=O
IC50: 13 nM

Molecule: Cc1cc(CC(=O)Nc2cnn(C(C)(C)C)c2)ccc1Oc1ccnc2ccc(P(C)(C)=O)cc12
IC50: 6 nM

Consider now this further molecule.
Problem: Identify IC50 associated with the molecule "CNC(=O)c1ccc2nccc(Oc3cc(F)c(CC(=O)Nc4cnn(C(C)(C)C)c4)cc3C)c2c1"
Result: 7 nM

###

tested on: TNF-alpha secretion in human whole blood; test: Inhibition of TNF-alpha secretion in human whole blood (IFN-gamma primed, L18-MDP stimulated); type: cell-based; conditions: Homo sapiens, 16 h, L18-MDP 100 ng/mL, read-out: Human Whole Blood TNFα IC50
Reported pIC50 by item:
FYI, pIC50 means -log10 of a concentration in mol per litre.

# example entries with known answers
Smiles Str: [2H]C([2H])([2H])NC(=O)c1ccc2nccc(Oc3ccc(CC(=O)Nc4cnn(C56CC(C5)C6)c4)cc3C)c2c1
pIC50: 8.70
--
Smiles Str: Cc1cc(CC(=O)Nc2cnn(C(C)(C)C)c2)ccc1Oc1ncnc2ccc(CN3CCNCC3)cc12
pIC50: 8.15

Consider now this further compound.
Problem: Identify pIC50 associated with the compound "Cc1c(Oc2ccnc3ccc(S(C)(=O)=O)cc23)cc(F)c(CC(=O)Nc2cnn(C(C)(C)C)c2)c1F"
Result: 8.39

###

Reported IC50 by item:
molecular target: RIPK2 enzyme (Homo sapiens, UniProt O43353); construct: purchased Carna 09-128; assay: RIPK2 inhibition (ADP-Glo Kinase Assay); type: biochemical; conditions: RIPK2 5 nM, ATP 150 μM, MBP substrate, read-out: RIPK2 IC50
Sequence (O43353 1-299 limits assumed): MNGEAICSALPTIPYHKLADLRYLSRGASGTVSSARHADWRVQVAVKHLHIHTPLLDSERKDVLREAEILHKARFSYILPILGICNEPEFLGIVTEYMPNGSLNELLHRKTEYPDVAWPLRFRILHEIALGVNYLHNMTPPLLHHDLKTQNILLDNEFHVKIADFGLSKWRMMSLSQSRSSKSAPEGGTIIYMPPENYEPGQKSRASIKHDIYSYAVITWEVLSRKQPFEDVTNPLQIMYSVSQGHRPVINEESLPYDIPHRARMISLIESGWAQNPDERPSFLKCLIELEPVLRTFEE

Smiles Str: CNC(=O)c1ccc2nccc(Oc3c(C)cc(CC(=O)Nc4cnn(C(C)(C)C)c4)cc3C)c2c1
IC50: < 2.5 nM

Smiles Str: Cc1c(Oc2ccnc3ccc(C(=O)N4CCCC4)cc23)ccc(CC(=O)Nc2cnn(C(C)(C)C)c2)c1F
IC50: < 2.5 nM

Smiles Str: COc1cc2nccc(Oc3ccc(CC(=O)Nc4cnn(C(C)(C)C)c4)c(F)c3)c2cc1S(=O)(=O)C(C)(C)C
IC50: < 2.5 nM

Consider now this further molecule.
Problem: Identify IC50 associated with the molecule "Cc1cc(CC(=O)Nc2cnn(C(C)(C)C)c2)ccc1Oc1ccnc2ccc(N3CCCS3(=O)=O)cc12"
Result: < 2.5 nM

###

system: human NOD2 signaling; assay: Inhibition of human NOD2 signaling in HEK-Blue-hNOD2 cells (L18-MDP stimulated, SEAP reporter); assay type: cell-based; settings: Homo sapiens, HEK-Blue hNOD2, HEK-Blue-hNOD2 cells, NOD2 ligand stimulation, SEAP reporter; read-out: hNOD2 IC50
Endpoint: log10 of IC50 (log10 of the value in nM)
Parameter value (number): base-10 log of IC50 in nM.

# example entries with known answers
Smiles Str: [2H]C([2H])([2H])NC(=O)c1cc2c(Oc3c(C)cc(CC(=O)Nc4cnn(C(C)(C)C)c4)cc3C)ccnc2cc1F
Endpoint: log10 of IC50
Reported Measurement: 0.08

Smiles Str: Cc1cc(CC(=O)Nc2cnn(C(C)(C)C)c2)c(F)cc1Oc1ccnc2ccc(-c3nccnc3C(F)(F)F)cc12
Endpoint: log10 of IC50
Reported Measurement: 1.27

Smiles Str: Cc1cc(CC(=O)Nc2cnn(C(C)(C)C)c2)c(F)cc1Oc1ccnc2ccc(C(=O)NC3(C)COC3)cc12
Endpoint: log10 of IC50
Reported Measurement: 0.18

Smiles Str: Cc1cc(CC(=O)Nc2cnn(C(C)(C)C)c2)c(F)cc1Oc1ccnc2ccc(C(=O)NC34CC(C3)C4)cc12
Endpoint: log10 of IC50
Reported Measurement: 0.49

Consider now this further compound.
Problem: Identify log10 of IC50 associated with the compound "CNC(=O)c1cc2c(Oc3c(C)cc(CC(=O)Nc4cnn(C(C)(C)C)c4)cc3Cl)ccnc2cc1F"
Result: -0.05

###

biological target: RIPK2 enzyme (Homo sapiens); construct: purchased Carna 09-128; assay: RIPK2 inhibition (ADP-Glo Kinase Assay); assay type: biochemical; settings: RIPK2 5 nM, ATP 150 μM, MBP substrate, read-out: RIPK2 IC50
Reported IC50 by item:

Problem: Give the observed IC50 of "Cc1cc(CC(=O)Nc2cnn(C(C)(C)C)c2)ccc1Oc1ccnc2ccc(C(=O)N3CCCC3)cc12" for RIPK2 enzyme (Homo sapiens).
Result: < 2.5 nM

Problem: Give the observed IC50 of "CN1CCC(Oc2ccc3nccc(Oc4ccc(CC(=O)Nc5cnn(C(C)(C)C)c5)cc4F)c3c2)CC1" for RIPK2 enzyme (Homo sapiens).
Result: < 2.5 nM

Problem: Give the observed IC50 of "CCn1nc(NC(=O)Cc2ccc(Oc3ccnc4ccc(S(C)(=O)=O)cc34)cc2F)cc1C(C)C" for RIPK2 enzyme (Homo sapiens).
Result: < 2.5 nM

###

biological target: RIPK2 enzyme (Homo sapiens); construct: purchased Carna 09-128; assay: RIPK2 inhibition (ADP-Glo Kinase Assay); format: biochemical; conditions: RIPK2 5 nM, ATP 150 μM, MBP substrate, read-out: RIPK2 IC50
Reported IC50 by item:
Number in nM, nothing else.

# example entries with known answers
Compound: CC(C)(C)n1cc(NC(=O)Cc2ncc(Oc3ccnc4ccc(OC5CCNCC5)cc34)cc2F)cn1 [Compound 80]
IC50, nM: 3.5

Compound: CC(C)(C)n1cc(NC(=O)Cc2ccc(Oc3ccnc4ccc(S(C)(=N)=O)cc34)c(Cl)c2)cn1 (stereo not shown) [Compound 90]
IC50, nM: 2.9

Compound: CC(C)(C)n1cc(NC(=O)Cc2ccc(Oc3ncnc4ccc(N5CCOCC5)cc34)cc2F)cn1 [Compound 14]
IC50, nM: 23.7

Compound: Cc1cc(CC(=O)Nc2cnn(C(C)(C)C)c2)c(F)cc1Oc1ccnc2ccc(-c3ncccc3C(F)(F)F)cc12 [Compound 522]
IC50, nM: 8.6

Consider now this further compound.
Problem: Identify IC50 associated with the compound CC(C)(C)n1cc(NC(=O)Cc2ccc(Oc3ccnc4ccc(S(C)(=O)=NC#N)cc34)cc2F)cn1 (stereo not shown) [Compound 71]
Result: 9.1

###

target: RIPK2 and XIAP protein-protein interaction (Homo sapiens, UniProt O43353); construct: the N-terminus of full-length RIPK2 was appended with the HaloTag fusion protein; experiment: Inhibition of the interaction of RIPK2 with XIAP (NanoBRET in HEK293T cells); conditions: RIPK2 HaloTag / XIAP NanoLuc, read-out: NanoBRET Scaffolding IC50
Sequence (O43353 whole entry, the tested form may be a part): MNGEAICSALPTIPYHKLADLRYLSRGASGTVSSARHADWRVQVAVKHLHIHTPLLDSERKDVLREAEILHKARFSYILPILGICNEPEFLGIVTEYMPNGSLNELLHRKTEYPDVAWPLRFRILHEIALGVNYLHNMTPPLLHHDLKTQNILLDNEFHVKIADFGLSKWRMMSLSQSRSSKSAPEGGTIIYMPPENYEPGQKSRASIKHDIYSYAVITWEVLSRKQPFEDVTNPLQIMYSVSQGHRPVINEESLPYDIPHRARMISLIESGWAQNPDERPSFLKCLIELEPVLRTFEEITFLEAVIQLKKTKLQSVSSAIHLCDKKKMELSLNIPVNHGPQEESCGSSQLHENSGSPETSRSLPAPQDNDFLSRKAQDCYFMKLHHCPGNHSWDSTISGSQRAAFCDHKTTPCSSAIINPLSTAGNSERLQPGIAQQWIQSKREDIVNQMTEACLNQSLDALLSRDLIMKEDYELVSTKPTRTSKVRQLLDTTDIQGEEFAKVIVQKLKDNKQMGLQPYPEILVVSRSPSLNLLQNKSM
pIC50: −log10 of the molar value.
Response key: yes means pIC50 >= 7; no means pIC50 < 7.

Example cases with answers are listed next.
Compound: Cc1cc(CC(=O)Nc2cnn(C(C)(C)C)c2)c(F)cc1Oc1ccnc2ccc(CC(N)=O)cc12 [Compound 566]
Discrete Label: no

Compound: CN1CCC(Oc2ccc3nccc(Oc4cnc(CC(=O)Nc5cnn(C(C)(C)C)c5)c(F)c4)c3c2)CC1 [Compound 78]
Discrete Label: yes

Compound: Cc1cc(CC(=O)Nc2cnn(C(C)(C)C)c2)ccc1Oc1ccnc2ccc(P(C)(C)=O)cc12 [Compound 179]
Discrete Label: no

Compound: CNC(=O)c1ccc2nccc(Oc3cc(F)c(CC(=O)Nc4cnn(C(C)(C)C)c4)cc3Cl)c2c1 [Compound 498]
Discrete Label: yes

Compound: CNC(=O)c1ccc2nccc(Oc3ccc(CC(=O)Nc4cnn(C(C)(C)C)c4)cc3C)c2c1 [Compound 488]
Discrete Label: yes

Problem: Is pIC50 at least 7? Consider Cc1cc(CC(=O)Nc2cnn(C(C)(C)C)c2)ccc1Oc1ccnc2ccc(S(C)(=O)=O)cc12 [Compound 86]
Result: yes

Problem: Is pIC50 at least 7? Consider Cc1cc(CC(=O)Nc2cnn(C(C)(C)C)c2)c(Cl)cc1Oc1ccnc2ccc(S(C)(=O)=O)cc12 [Compound 474]
Result: no

Problem: Is pIC50 at least 7? Consider CC(C)(C)n1cc(NC(=O)Cc2ccc(Oc3ccnc4ccc(S(C)(=O)=O)cc34)cc2F)cn1 [Compound 38]
Result: yes

###

target: RIPK2 enzyme (Homo sapiens, UniProt O43353); construct: purchased Carna 09-128; test: RIPK2 inhibition (ADP-Glo Kinase Assay); format: biochemical; conditions: RIPK2 5 nM, ATP 150 μM, MBP substrate, read-out: RIPK2 IC50
Reported IC50 by item:

# example entries with known answers
Compound: Cc1cc(CC(=O)Nc2cnn(C(C)(C)C)c2)ccc1Oc1ccnc2ccc(S(=N)(=O)C3CC3)cc12 (single isomer, unassigned) [Compound 544]
System: RIPK2 enzyme (Homo sapiens, UniProt O43353)
IC50: < 2.5 nM
//
Compound: Cc1c(Oc2ccnc3ccc(S(=N)(=O)C(C)(C)C)cc23)ccc(CC(=O)Nc2cnn(C(C)(C)C)c2)c1F (single isomer, unassigned) [Compound 540]
System: RIPK2 enzyme (Homo sapiens, UniProt O43353)
IC50: < 2.5 nM
//
Compound: [2H]C([2H])([2H])N1CCC(Oc2ccc3nccc(Oc4cnc(CC(=O)Nc5cnn(C(C)(C)C)c5)c(F)c4)c3c2)CC1
System: RIPK2 enzyme (Homo sapiens, UniProt O43353)
IC50: 4.4 nM
//
Compound: CN1CCC(Oc2ccc3nccc(Oc4ccc(CC(=O)Nc5cnn(C(C)(C)C)c5)c(F)c4)c3c2)CC1
System: RIPK2 enzyme (Homo sapiens, UniProt O43353)
IC50: < 2.5 nM

Problem: Give the observed IC50 of "CCNC(=O)c1ccc2nccc(Oc3ccc(CC(=O)Nc4cnn(C(C)(C)C)c4)c(F)c3C)c2c1" for RIPK2 enzyme (Homo sapiens, UniProt O43353).
Result: < 2.5 nM

Problem: Give the observed IC50 of CCS(=N)(=O)c1ccc2nccc(Oc3ccc(CC(=O)Nc4cnn(C(C)(C)C)c4)c(F)c3)c2c1 (stereo not shown) for RIPK2 enzyme (Homo sapiens, UniProt O43353).
Result: 3.2 nM

Problem: Give the observed IC50 of "Cc1cc(CC(=O)Nc2cnn(C(C)(C)C)c2)ccc1Oc1ccnc2ccc(OC[C@H]3CCCNC3)cc12" for RIPK2 enzyme (Homo sapiens, UniProt O43353).
Result: < 2.5 nM

Problem: Give the observed IC50 of "[2H]C([2H])([2H])c1cc(CC(=O)Nc2cnn(C(C)(C)C)c2)ccc1Oc1ccnc2ccc(OC3CCNCC3)cc12" for RIPK2 enzyme (Homo sapiens, UniProt O43353).
Result: < 2.5 nM

Problem: Give the observed IC50 of Cc1cc(CC(=O)Nc2cnn(C(C)(C)C)c2)ccc1Oc1ccnc2ccc(OCC3CCCN3)cc12 (single isomer, unassigned) [Compound 190] for RIPK2 enzyme (Homo sapiens, UniProt O43353).
Result: < 2.5 nM

Problem: Give the observed IC50 of Cc1cc(CC(=O)Nc2cnn(C(C)(C)C)c2)ccc1Oc1ccnc2ccc(S(=O)(=O)C3CCC(=O)NC3)cc12 (stereo not shown) for RIPK2 enzyme (Homo sapiens, UniProt O43353).
Result: < 2.5 nM
